- target.entity: human SSTR5 (Homo sapiens)
- Construct: expressed in transfected cells; host or cells: CHO-K1 cells and CCL39 cells
- Sequence (P35346 whole entry): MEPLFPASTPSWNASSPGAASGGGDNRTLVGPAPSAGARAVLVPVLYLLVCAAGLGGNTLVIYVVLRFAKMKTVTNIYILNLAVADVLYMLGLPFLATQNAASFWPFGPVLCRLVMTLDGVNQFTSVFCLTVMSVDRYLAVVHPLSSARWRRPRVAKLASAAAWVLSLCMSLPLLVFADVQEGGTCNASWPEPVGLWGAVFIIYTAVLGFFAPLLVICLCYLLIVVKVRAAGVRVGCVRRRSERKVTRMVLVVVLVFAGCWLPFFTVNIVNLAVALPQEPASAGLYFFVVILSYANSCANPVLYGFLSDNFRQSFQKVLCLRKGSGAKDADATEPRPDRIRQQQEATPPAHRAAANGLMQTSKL
- procedure.details: Displacement of 125I-[Leu8,D-Trp22,Tyr25]-SRIF-28 from cloned SSTR5 (receptor autoradiography)
- Assay type: binding
- measurement.parameters: read-out: IC50 (nM) mSSTR5
*1 amine or outer side, *2 acyl side, *3 side chain or, on linkers, in order; H or OH if unused. Where a SMILES comes first, the peptide text is derived from it. Bridges are numbered along the chain shown (N, C = ends). [ ]: non-standard residue; d: D form. Phe(4-CH2NHiPr) = CC(C)NCc1ccc(C[C@H](N)C(=O)O)cc1; X1 = NC(=O)N[C@@H](CS[*:2])C(=O)[*:1]
measured.parameter: IC50

For the molecule CC(C)NCc1ccc(C[C@@H]2NC(=O)[C@@H](Cc3c[nH]c4ccccc34)NC(=O)[C@H](Cc3ccccc3)NC(=O)[C@H](Cc3ccccc3)NC(=O)[C@H](CCCCN)NC(=O)[C@@H](NC(N)=O)CSSC[C@@H](C(=O)O)NC(=O)[C@H](CO)NC(=O)[C@H]([C@@H](C)O)NC(=O)[C@H](Cc3ccc(O)cc3)NC(=O)[C@H]([C@@H](C)O)NC2=O)cc1 [Peptide No. 12A] (KFF[dW][Phe(4-CH2NHiPr)]TYTSC-OH; linker N-10 via X1) , what IC50 is on record? > 1000 nM

====

- target.entity: human SSTR4 (Homo sapiens)
- Construct: expressed in transfected cells; host or cells: CHO-K1 cells and CCL39 cells
- Sequence (P31391 whole entry): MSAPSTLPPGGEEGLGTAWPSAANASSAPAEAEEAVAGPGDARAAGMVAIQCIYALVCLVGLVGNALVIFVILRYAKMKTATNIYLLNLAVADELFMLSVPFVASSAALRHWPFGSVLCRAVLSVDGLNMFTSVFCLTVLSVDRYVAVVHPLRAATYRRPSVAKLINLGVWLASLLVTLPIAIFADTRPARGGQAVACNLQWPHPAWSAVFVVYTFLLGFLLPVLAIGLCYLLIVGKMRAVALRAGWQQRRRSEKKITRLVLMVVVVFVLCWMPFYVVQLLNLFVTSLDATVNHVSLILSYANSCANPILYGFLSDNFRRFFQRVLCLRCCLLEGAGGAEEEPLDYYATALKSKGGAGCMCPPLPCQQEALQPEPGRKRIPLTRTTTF
- procedure.details: Displacement of 125I-[Leu8,D-Trp22,Tyr25]-SRIF-28 from cloned SSTR4 (receptor autoradiography)
- Format: binding
- measurement.parameters: read-out: IC50 (nM) mSSTR4
*1 amine or outer side, *2 acyl side, *3 side chain or, on linkers, in order; H or OH if unused. Where a SMILES comes first, the peptide text is derived from it. Bridges are numbered along the chain shown (N, C = ends). [ ]: non-standard residue; d: D form. The star is where a group is joined. NMePhe(4-CH2NHiPr) = CN[C@@H](Cc1ccc(CNC(C)C)cc1)C(=O)O; Phe(4-CH2NHiPr) = CC(C)NCc1ccc(C[C@H](N)C(=O)O)cc1; Tyr(3-I) = N[C@@H](Cc1ccc(O)c(I)c1)C(=O)O; X3 = NC(=O)N[C@@H](Cc1ccc(O)c(I)c1)C(=O)*; X1 = NC(=O)N[C@@H](CS[*:2])C(=O)[*:1]; d2Nal = N[C@H](Cc1ccc2ccccc2c1)C(=O)O; X2 = NC(=O)N[C@H](CS[*:2])C(=O)[*:1]; NMeS = CN[C@@H](CO)C(=O)O
Form field: IC50 (one value per entry).

Previously resolved entries follow.
# compound, assay.value
records = [
    ("CC(C)NCc1ccc(C[C@H]2C(=O)N[C@@H]([C@@H](C)O)C(=O)N[C@@H](Cc3ccc(O)cc3)C(=O)N[C@@H]([C@@H](C)O)C(=O)N[C@@H](CO)C(=O)N[C@H](C(=O)O)CSSC[C@H](N)C(=O)N[C@@H](CCCCN)C(=O)N[C@@H](Cc3ccccc3)C(=O)N[C@@H](Cc3ccccc3)C(=O)N[C@H](Cc3c[nH]c4ccccc34)C(=O)N2C)cc1 [Peptide No. 2] (H-CKFF[dW][NMePhe(4-CH2NHiPr)]TYTSC-OH; disulfide 1-11)", "> 1000 nM"),
    ("CC(C)NCc1ccc(C[C@H]2C(=O)N[C@@H]([C@@H](C)O)C(=O)N[C@@H](Cc3ccccc3)C(=O)N[C@@H]([C@@H](C)O)C(=O)N[C@@H](CO)C(=O)N[C@H](C(=O)O)CSSC[C@H](N)C(=O)N[C@@H](CCCCN)C(=O)N[C@@H](Cc3ccccc3)C(=O)N[C@@H](Cc3ccccc3)C(=O)N[C@H](Cc3ccc4ccccc4c3)C(=O)N2C)cc1 [Peptide No. 15] (H-CKFF[d2Nal][NMePhe(4-CH2NHiPr)]TFTSC-OH; disulfide 1-11)", "> 1000 nM"),
    ("CC(C)NCc1ccc(C[C@@H]2NC(=O)[C@@H](Cc3c[nH]c4ccccc34)NC(=O)[C@H](Cc3ccccc3)NC(=O)[C@H](Cc3ccccc3)NC(=O)[C@H](CCCCN)NC(=O)[C@H](NC(N)=O)CSSC[C@@H](C(=O)O)NC(=O)[C@H](CO)NC(=O)[C@H]([C@@H](C)O)NC(=O)[C@H](Cc3ccc(O)cc3)NC(=O)[C@H]([C@@H](C)O)NC2=O)cc1 [Peptide No. 12C] (KFF[dW][Phe(4-CH2NHiPr)]TYTSC-OH; linker N-10 via X2)", "> 10000 nM"),
    ("CC(C)NCc1ccc(C[C@@H]2NC(=O)[C@@H](Cc3c[nH]c4ccccc34)NC(=O)[C@H](Cc3ccccc3)NC(=O)[C@H](Cc3ccccc3)NC(=O)[C@H](CCCCN)NC(=O)[C@@H](NC(N)=O)CSSC[C@@H](C(=O)O)NC(=O)[C@H](CO)NC(=O)[C@H]([C@@H](C)O)NC(=O)[C@H](Cc3ccc(O)cc3)NC(=O)[C@H]([C@@H](C)O)NC2=O)cc1 [Peptide No. 12A] (KFF[dW][Phe(4-CH2NHiPr)]TYTSC-OH; linker N-10 via X1)", "> 1000 nM"),
    ("CC(C)NCc1ccc(C[C@@H]2NC(=O)[C@@H](Cc3c[nH]c4ccccc34)NC(=O)[C@H](Cc3ccccc3)NC(=O)[C@H](Cc3ccccc3)NC(=O)[C@H](CCCCN)NC(=O)[C@@H](NC(=O)[C@H](Cc3ccc(O)c(I)c3)NC(N)=O)CSSC[C@@H](C(=O)O)NC(=O)[C@H](CO)NC(=O)[C@H]([C@@H](C)O)NC(=O)[C@H](Cc3ccccc3)NC(=O)[C@H]([C@@H](C)O)NC2=O)cc1 [Peptide No. 14B] (X3-CKFF[dW][Phe(4-CH2NHiPr)]TFTSC-OH; disulfide 1-11)", "> 1000 nM"),
    ("CC(C)NCc1ccc(C[C@@H]2NC(=O)[C@@H](Cc3c[nH]c4ccccc34)NC(=O)[C@H](Cc3ccccc3)NC(=O)[C@H](Cc3ccccc3)NC(=O)[C@H](CCCCN)NC(=O)[C@@H](N)CSSC[C@@H](C(=O)O)NC(=O)[C@H](CO)N(C)C(=O)[C@H]([C@@H](C)O)NC(=O)[C@H](Cc3ccccc3)NC(=O)[C@H]([C@@H](C)O)NC2=O)cc1 [Peptide No. 22A] (H-CKFF[dW][Phe(4-CH2NHiPr)]TFT[NMeS]C-OH; disulfide 1-11)", "> 1000 nM"),
    ("CC(C)NCc1ccc(C[C@H]2C(=O)N[C@@H]([C@@H](C)O)C(=O)N[C@@H](Cc3ccc(O)cc3)C(=O)N[C@@H]([C@@H](C)O)C(=O)N[C@@H](CO)C(=O)N[C@H](C(=O)O)CSSC[C@H](NC(N)=O)C(=O)N[C@@H](CCCCN)C(=O)N[C@@H](Cc3ccccc3)C(=O)N[C@@H](Cc3ccccc3)C(=O)N[C@H](Cc3c[nH]c4ccccc34)C(=O)N2C)cc1 [Peptide No. 12] (KFF[dW][NMePhe(4-CH2NHiPr)]TYTSC-OH; linker N-10 via X1)", "> 1000 nM"),
    ("CC(C)NCc1ccc(C[C@H]2C(=O)N[C@@H]([C@@H](C)O)C(=O)N[C@@H](Cc3ccc(O)c(I)c3)C(=O)N[C@@H]([C@@H](C)O)C(=O)N[C@@H](CO)C(=O)N[C@H](C(=O)O)CSSC[C@H](NC(N)=O)C(=O)N[C@@H](CCCCN)C(=O)N[C@@H](Cc3ccccc3)C(=O)N[C@@H](Cc3ccccc3)C(=O)N[C@H](Cc3c[nH]c4ccccc34)C(=O)N2C)cc1 [Peptide No. 12D] (KFF[dW][NMePhe(4-CH2NHiPr)]T[Tyr(3-I)]TSC-OH; linker N-10 via X1)", "700 nM"),
]

Endpoint output: IC50 of CC(C)NCc1ccc(C[C@H]2C(=O)N[C@@H]([C@@H](C)O)C(=O)N[C@@H](Cc3ccccc3)C(=O)N[C@@H]([C@@H](C)O)C(=O)N[C@@H](CO)C(=O)N[C@H](C(=O)O)CSSC[C@H](N)C(=O)N[C@@H](CCCCN)C(=O)N[C@@H](Cc3ccccc3)C(=O)N[C@@H](Cc3ccccc3)C(=O)N[C@H](Cc3c[nH]c4ccccc34)C(=O)N2C)cc1 [Peptide No. 13] (H-CKFF[dW][NMePhe(4-CH2NHiPr)]TFTSC-OH; disulfide 1-11) . Value? 200 nM

// next record CC(C)NCc1ccc(C[C@H]2C(=O)N[C@@H]([C@@H](C)O)C(=O)N[C@@H](Cc3ccc(O)cc3)C(=O)N[C@@H]([C@@H](C)O)C(=O)N[C@@H](CO)C(=O)N[C@H](C(=O)O)CSSC[C@H](NC(N)=O)C(=O)N[C@@H](CCCCN)C(=O)N[C@@H](Cc3ccccc3)C(=O)N[C@@H](Cc3ccccc3)C(=O)N[C@H](Cc3ccc4ccccc4c3)C(=O)N2C)cc1 [Peptide No. 16] (KFF[d2Nal][NMePhe(4-CH2NHiPr)]TYTSC-OH; linker N-10 via X1) > 10000 nM
